These entries and their values trace back to PubChem BioAssay (NCI).

System: HOP-92 NSCLC
Assay: NCI tumour cell line growth inhibition, 48 h
In this section we review reported TGI values for a set of compounds.
metric_name: TGI (µM)

• C=C1[C@@H](C)[C@H]2[C@H](Cc3ccccc3)NC(=O)[C@]23OC(=O)/C=C/[C@H](O)CCC[C@@H](C)C/C=C/[C@H]3[C@@H]1O = 4.23
• CCCCN(CCCC)C1=Nc2ccccc2-n2c(nnc2C(=O)OCC)C1 = 81.5
• O=S(=O)([O-])c1cccc2cccc(N=Cc3ccccc3[O-])c12.O=S(=O)([O-])c1cccc2cccc(N=Cc3ccccc3[O-])c12.[O]=[U]=[O] = 89.6
• Cc1ccc(C(CN(C)C)C(=O)c2ccccc2)cc1 (stereo not given) = 5.38
